target: IRAK4 enzyme (Homo sapiens); assay: IRAK4 enzyme inhibition degree (bead-based kinase assay, peptide substrate BMKC-2, 100 μM ATP); format: biochemical; conditions: compound 1 μM
Sequence (Q9NWZ3 whole entry): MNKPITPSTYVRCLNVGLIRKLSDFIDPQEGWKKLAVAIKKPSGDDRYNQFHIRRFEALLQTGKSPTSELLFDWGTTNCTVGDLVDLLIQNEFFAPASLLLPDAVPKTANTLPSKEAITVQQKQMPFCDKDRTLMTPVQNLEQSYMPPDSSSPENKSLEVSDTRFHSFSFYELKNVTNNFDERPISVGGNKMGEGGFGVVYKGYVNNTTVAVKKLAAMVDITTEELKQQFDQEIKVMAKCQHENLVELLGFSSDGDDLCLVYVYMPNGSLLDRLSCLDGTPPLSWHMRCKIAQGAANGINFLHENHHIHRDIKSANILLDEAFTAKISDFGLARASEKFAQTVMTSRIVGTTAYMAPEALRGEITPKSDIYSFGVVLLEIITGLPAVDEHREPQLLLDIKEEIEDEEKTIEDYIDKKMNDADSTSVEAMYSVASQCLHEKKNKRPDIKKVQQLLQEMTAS
Listed here: items and their measured inhibition at 1 µM.

According to the records, this compound Fc1ccc(-c2ccc3[nH]c4ncnc(N[C@H]5CC[C@H](N6CCOCC6)CC5)c4c3c2)cc1 displays inhibition at 1 µM of 82%

Entry Cn1cc(-c2ccc3[nH]c4nccc(N[C@H]5CC[C@H](N6CCOCC6)CC5)c4c3c2)cn1 [Compound 17a] — recorded inhibition at 1 µM = 100%

Entry COc1cncc(-c2ccc3[nH]c4ncnc(N[C@H]5CC[C@H](N6CCOCC6)CC5)c4c3c2)c1 — recorded inhibition at 1 µM = 100%

Next item in the queue.
compound Cc1nnc(-c2ccc3[nH]c4ncnc(N[C@H]5CC[C@H](N6CCOCC6)CC5)c4c3c2)[nH]1 , inhibition at 1 µM observed: 86%
